- SYSTEM: HLA-A*02:06
- EXPERIMENT NOTES: IEDB peptide-MHC binding, purified MHC/competitive/radioactivity; bounds were set here for any values at or beyond the usual limits of such assays
- ASSAY SETUP: source organism: Hepatitis B virus
Known log10(IC50) of a selection of sequences
// do not treat as linear: log10 of IC50, unit nM

Example sequences with recorded log10(IC50):
FIIFLFILLL    3.15
PLLPIFFCL    1.94

input: Could you share which log10(IC50) value was measured for FLGPLLVLQA ?
output: 3.14

input: May I ask what log10(IC50) has been recorded for FLAPLPIHTA ?
output: 1.11

input: Fill in the blank: the reported log10(IC50) of WMMWYWGPSL is ____.
output: 2.48

Data provenance: the Immune Epitope Database (IEDB)
